system: surface expressed viral antigens in FIPV infected monocytes; assay: Internalization inhibition assay of surface expressed viral antigens (antigen-antibody complexes); type: cell-based, feline; details: each inhibitor at its working concentration
Residues, ends and D or L forms follow the SMILES beside them.
Observable: internalization of viral antigens (in words)

>  <Compound>
CN(C)CCCn1cc(C2=C(c3c[nH]c4ccccc34)C(=O)NC2=O)c2ccccc21 [bisindolylmaleimide I]

>  <Target>
surface expressed viral antigens in FIPV infected monocytes

>  <Measured Value>
unaffected

$$$$
>  <Compound>
CC(NC(=O)C(CCCN=C(N)N)NC(=O)C(CCCCN)NC(=O)C(N)CCCN=C(N)N)C(=O)NC(CCCN=C(N)N)C(=O)NC(CCCCN)C(=O)NC(CCC(=O)O)C(=O)O (stereo not drawn) [PKG-inhibitor] (H-RKRARKE-OH; configuration not given here)

>  <Target>
surface expressed viral antigens in FIPV infected monocytes

>  <Measured Value>
unaffected

$$$$
>  <Compound>
COc1ccc(S(=O)(=O)N(CCO)c2ccccc2CN(C)C/C=C/c2ccc(Cl)cc2)cc1 [KN-93]

>  <Target>
surface expressed viral antigens in FIPV infected monocytes

>  <Measured Value>
unaffected

$$$$
>  <Compound>
O=S(=O)(NCCNC/C=C/c1ccc(Br)cc1)c1cccc2cnccc12 [H-89]

>  <Target>
surface expressed viral antigens in FIPV infected monocytes

>  <Measured Value>
unaffected

$$$$

====

system: feline monocytes; test: Internalization assay of control ligands (beads, transferrin or albumin) in monocytes; type: cell-based; conditions: control ligand not named, inhibitor at working concentration
Residues, ends and D or L forms follow the SMILES beside them.
Can you tell me internalization of a control ligand for the items I'm about to list?
Give bare numbers, in %.

# example entries with known answers
>  <Molecule>
CN(C)CCCn1cc(C2=C(c3c[nH]c4ccccc34)C(=O)NC2=O)c2ccccc21 [bisindolylmaleimide I]

>  <internalization of a control ligand / %>
25

$$$$
>  <Molecule>
COc1ccc(S(=O)(=O)N(CCO)c2ccccc2CN(C)C/C=C/c2ccc(Cl)cc2)cc1 [KN-93]

>  <internalization of a control ligand / %>
23

$$$$
>  <Molecule>
CC(NC(=O)C(CCCN=C(N)N)NC(=O)C(CCCCN)NC(=O)C(N)CCCN=C(N)N)C(=O)NC(CCCN=C(N)N)C(=O)NC(CCCCN)C(=O)NC(CCC(=O)O)C(=O)O (stereo not shown) [PKG-inhibitor] (H-RKRARKE-OH; configuration not given here)

>  <internalization of a control ligand / %>
14

$$$$

Proceeding to the next molecule to report its internalization of a control ligand.
In: Hello, please tell me recorded internalization of a control ligand for this one: O=S(=O)(NCCNC/C=C/c1ccc(Br)cc1)c1cccc2cnccc12 [H-89]
Out: 33

# credit: patent US8293464B2
